Tested on: Mus musculus
Experiment: AUC (0 to 24 hrs) in C57BL/6J mouse at 1 mg/kg, iv by LC-MS/MS analysis
Assay type: ADME, organism-based
Design: dose 1 mg/kg, time < 24 hr, route intravenous
Details: in vivo
Where a SMILES comes first, the peptide text is derived from it. [ ]: non-standard residue; d: D form. The star is where a group is joined. ξ: configuration not given here. ξCha = NC(CC1CCCCC1)C(=O)O; Aib = CC(C)(N)C(=O)O; Bz = O=C(c1ccccc1)*
Could you please report measured AUC for the items listed next?
One number for each entry, in µM·h.

>>> reported_result("CC(C)C[C@H](NC(=O)[C@H](CC(N)=O)NC(=O)C(CC1CCCCC1)NC(=O)C(CC1CCCCC1)NC(=O)[C@H](Cc1cnc[nH]1)NC(=O)[C@H](CCCNC(=N)N)NC(=O)c1ccccc1)C(=O)NC(C)(C)C(=O)N[C@H](C(=O)N[C@@H](CCCNC(=N)N)C(=O)N[C@@H](CCC(N)=O)C(=O)N[C@@H](CCCNC(=N)N)C(=O)NC(CC1CCCCC1)C(N)=O)[C@@H](C)O (some centres not stated) (Bz-RH[ξCha][ξCha]NL[Aib]TRQR[ξCha]-NH2)")
3.56

// next entry
Requested field: AUC. Item: `CC(=O)N[C@@H](CO)C(=O)N1C[C@@H](O)C[C@@H]1C(=O)N[C@@H](CCCNC(=N)N)C(=O)N[C@@H](Cc1cnc[nH]1)C(=O)N[C@@H](CC1CCCCC1)C(=O)N[C@@H](CC1CCCCC1)C(=O)N[C@@H](CC(N)=O)C(=O)N[C@@H](CC(C)C)C(=O)NC(C)(C)C(=O)N[C@H](C(=O)N[C@@H](CCCNC(=N)N)C(=O)N[C@@H](CCC(N)=O)C(=O)N[C@@H](CCCNC(=N)N)C(=O)N[C@@H](CC1CCCCC1)C(N)=O)[C@@H](C)O` 0.18
